// reported TGI per item
system: HCT-116 colon; assay: NCI tumour cell line growth inhibition, 48 h
Write the number in µM without appending the unit.

The reported value for `COc1cccc(/C=C/C(=O)c2cccc(Nc3nc(Nc4ccccc4)nc(Nc4ccccc4)n3)c2)c1` in terms of TGI is 2.93

New cases:
The reported value for `CCN(CC)CCn1ccc(=O)c2cc3c(=O)ccn(CCN(CC)CC)c3c(C)c21` in terms of TGI is 9.08

The reported value for CCOC1CC(=O)c2c(Br)sc(Br)c21 (stereo not given) in terms of TGI is 38.4

The reported value for `O=c1cc(/C=C/c2ccc(O)c(O)c2)oc(/C=C/c2ccc(O)c(O)c2)c1` in terms of TGI is 15.5

----------
test system: UACC-257 melanoma; test: NCI tumour cell line growth inhibition, 48 h
// reported GI50 per item

// worked examples, GI50 included
// returns GI50 for `CNC(=O)n1ccc2cc(Oc3ccnc(NC(=O)c4ccc(C5CCN(CCO)CC5)cc4)c3)c(OCCOC)cc21` with UACC-257 melanoma; value = 2240 nM

// returns GI50 for Nc1c(C(=O)Nc2cccc([N+](=O)[O-])c2)sc2nc3c(cc12)C(O)CCC3 (stereo unspecified) with UACC-257 melanoma; value = > 29800 nM

// returns GI50 for CC/C=C\C=C/C(=O)N/C=C/CC1Cc2cccc(O)c2C(=O)O1 (stereo unspecified) with UACC-257 melanoma; value = 25200 nM

// returns GI50 for C[C@@H](C(=O)Nc1ccc(Cl)cc1)C1CCC(c2ccnc3ccc(F)cc23)CC1 (stereo partly specified) with UACC-257 melanoma; value = 13300 nM

// returns GI50 for `O=C1c2ccccc2-c2c1c1ccccc1c(=O)n2CCCNCCCNCCCn1c2c(c3ccccc3c1=O)C(=O)c1ccccc1-2` with UACC-257 melanoma; value = 811 nM

Consider the additional molecule presented here.
// returns GI50 for `COC(=O)[C@]12CC[C@@H](C)[C@H](C)[C@@H]1C1=CC[C@@H]3[C@@]4(C)C[C@@H](OC(C)=O)[C@H](O)[C@@](C)(COC(C)=O)[C@@H]4[C@H](O)C[C@@]3(C)[C@]1(C)CC2` with UACC-257 melanoma; value = 2060 nM

----------
tested on: NCI/ADR-RES ovarian; test: NCI tumour cell line growth inhibition, 48 h
// reported GI50 per item

// worked examples, GI50 included
The reported value for CC1SC(c2c(Cl)cccc2Cl)N(NC(=O)c2[nH]c3ccc(F)cc3c2-c2ccccc2)C1=O (stereo unspecified) in terms of GI50 is 2.05 µM

The reported value for `COC(=O)/C=C/C=C(c1ccccc1)c1ccccc1` in terms of GI50 is 3.12 µM

New cases:
The reported value for Nc1c(C(=O)Nc2cccc([N+](=O)[O-])c2)sc2nc3c(cc12)C(O)CCC3 (stereo unspecified) in terms of GI50 is 4.72 µM

The reported value for `CCCCN1CCN(c2ccc3nc(-c4ccc5nc(-c6ccc(C(F)(F)F)cc6)[nH]c5c4)[nH]c3c2)CC1` in terms of GI50 is 3.24 µM

The reported value for COc1ccc(N2C(C)=C(C#N)C34C(=O)N(c5ccccc5)C(=O)C3=C(O)C=CC24O)cc1 (stereo unspecified) in terms of GI50 is 29 µM

The reported value for `CC(C)NC[C@@H](C(=O)N1CCN(c2ncnc3c2[C@H](C)C[C@H]3O)CC1)c1ccc(Cl)cc1` in terms of GI50 is > 100 µM

----------
test system: ACHN renal; experiment: NCI tumour cell line growth inhibition, 48 h
// reported TGI per item
Write the number in µM without appending the unit.

// worked examples, TGI included
The reported value for `COC(=O)[C@]12CC[C@@H](C)[C@H](C)[C@@H]1C1=CC[C@@H]3[C@@]4(C)C[C@@H](OC(C)=O)[C@H](O)[C@@](C)(COC(C)=O)[C@@H]4[C@H](O)C[C@@]3(C)[C@]1(C)CC2` in terms of TGI is 9.17

The reported value for CCC1=CCC23C(=O)C=CC(=O)C2(C1)C(=O)c1cccc(OC)c1C3=O (stereo unspecified) in terms of TGI is 27.4

The reported value for `CN(C)c1nc(=NCc2ccncc2)ss1` in terms of TGI is 18.7

Consider the additional compound presented here.
The reported value for Cc1cc(C)c2c(=O)n(CN3CC4Nc5ccccc5C4C3)sc2n1 (stereo unspecified) in terms of TGI is 33.8

----------
// reported TGI per item
system: HCT-116 colon; experiment: NCI tumour cell line growth inhibition, 48 h
Write the number in µM without appending the unit.

// returns TGI for `Cc1occc1C(=S)Nc1ccc(Cl)c(COC(C)(C)C)c1` with HCT-116 colon; value = 32.1

----------
system: SK-MEL-28 melanoma; test: NCI tumour cell line growth inhibition, 48 h; in the data active = GI50 below about 0.43 µM; inactive = the rest
The reply should be one of these categories: 1.0 = active, 0.0 = inactive

Answered cases to consult:
Record request — test call for `Cc1c(C(=O)/C=C/c2csc3ccccc23)[n+](=O)c2ccccc2n1[O-]` 0.0

Record request — test call for `O=C1OC(=O)C(c2c[nH]c3ccccc23)=C1c1c[nH]c2ccccc12` 0.0

New cases:
Record request — test call for CCN1C(=O)N(CC)C2C1NN=c1s/c(=C\c3cccnc3)c(=O)n12 (stereo not drawn) 0.0

Record request — test call for `Cc1ccncc1.[O]=[Ge].[O]=[Ge].[O]=[Ge].[O]=[Ge].[O]=[Ge].[O]=[Ge][OH].[O]=[Ge][OH]` 0.0

----------
test system: CAKI-1 renal; experiment: NCI tumour cell line growth inhibition, 48 h
// reported TGI per item

The reported value for CC(=O)OC[C@]1(C(=O)C(O)c2ccoc2)[C@H](C)CC[C@@]23COC(=O)C2=CCC[C@@H]31 (stereo not given in full) in terms of TGI is > 10 µM

The reported value for `Cc1ccc(S(=O)(=O)Oc2cc(N)c3c(n2)CCC3)cc1` in terms of TGI is > 100 µM

The reported value for `COC(=O)NN(C(=O)OC)c1c(-c2ccccc2)nc(SC)n1N` in terms of TGI is > 100 µM

The reported value for `Cc1ccc(/C=C2\CN(C(=O)OC(C)(C)C)C/C(=C\c3ccc(C)cc3)C2=O)cc1` in terms of TGI is > 100 µM

The reported value for `COc1c2c(c3c(c1CCC(=O)O)OC(C)(C)C=C3)OC(C)(C)C=C2` in terms of TGI is > 100 µM

New cases:
The reported value for `CCOC(=O)C1=C(C)N(Cc2ccccc2)C(C)=C(C(=O)OCC)C1c1ccccc1O` in terms of TGI is > 100 µM

The reported value for `O=CNc1c(Cl)cc2c(c1Cl)Cc1cc([N+](=O)[O-])ccc1-2` in terms of TGI is > 91.2 µM

The reported value for `O=C(O)[C@@H]1C[C@@H](O)CN1C(=O)OCc1ccccc1` in terms of TGI is > 100 µM

The reported value for `COc1cc(Cl)cc(-c2nn(C(=O)NCCN3CCOCC3)cc2-c2ccncc2)c1` in terms of TGI is 18.7 µM

----------
test system: NCI-H23 lung; test: NCI tumour cell line growth inhibition, 48 h
Measure: TGI

// worked examples, TGI included
The reported value for `COc1ccc(/C(=N/O)c2ccccc2-c2nc3ccccc3c(=O)n2-c2ccc(S(=O)(=O)Nc3ncccn3)cc2)cc1C` in terms of TGI is 27.6 µM

The reported value for `COc1cc(/C=C2\C(=O)N(C(=O)Cc3ccccc3)N=C2C)ccc1O` in terms of TGI is > 100 µM

The reported value for CCCCCn1c(=N)n(CC(O)COc2cccc(C)c2)c2ccccc21 (stereo not given) in terms of TGI is 22.5 µM

The reported value for `CCOC(=O)C1=C(C)N(Cc2ccccc2)C(C)=C(C(=O)OCC)C1c1ccccc1O` in terms of TGI is 57.7 µM

The reported value for `COc1cccc(-c2cc(=O)c3c(C)cc(C)nc3[nH]2)c1` in terms of TGI is > 38.4 µM

The reported value for `c1ccc2c(c1)[nH]c1nc3cc(-c4ccc5nc6c(nc5c4)[nH]c4ccccc46)ccc3nc12` in terms of TGI is > 100 µM

New cases:
The reported value for `CC(C)(C)N=c1n(C(C)(C)C)oc(=O)n1C(C)(C)C` in terms of TGI is > 100 µM

The reported value for COP(=O)(O)/C=C/C(NC(=O)C(Cl)(Cl)Cl)c1ccccc1 (stereo not given) in terms of TGI is > 100 µM

The reported value for `CN(C)/C=C/c1nnc([N+](=O)[O-])s1` in terms of TGI is 36.8 µM

The reported value for Cc1ccccc1OC(C)C(=O)NN1C(=O)CC(=O)N(c2ccc(Cl)cc2)C1=S (stereo not given) in terms of TGI is > 100 µM

The reported value for `COc1c(CCC[P+](c2ccccc2)(c2ccccc2)c2ccccc2)cc2c(c1OC)OCO2` in terms of TGI is 10.3 µM

The reported value for C=C(C)CCC(=O)[C@](C)(O)[C@H]1[C@H](O)C[C@@]2(C)[C@@H]3CCc4c(cc(OC5OC(CO)C(O)C(O)C5O)c(O)c4C)C3(C)C(=O)C[C@]12C (stereo not given in full) in terms of TGI is > 100 µM

The reported value for `Cc1ccc(C(=O)O/N=C2/CCC/C2=C\c2ccccc2)cc1` in terms of TGI is > 100 µM

The reported value for `COc1cccc(/C=C/C(=O)c2cccc(Nc3nc(Nc4ccccc4)nc(Nc4ccccc4)n3)c2)c1` in terms of TGI is > 100 µM

The reported value for COc1ccc(N2C(C)=C(C#N)C34C(=O)N(c5ccccc5)C(=O)C3=C(O)C=CC24O)cc1 (stereo not given) in terms of TGI is 58 µM

The reported value for `CCCCCCCCCC[C@H](O)[C@H]1CC[C@H]([C@H]2CC[C@H]([C@H](O)CC[C@H](O)CCCCCCC[C@@H](O)CC3=C[C@H](C)OC3=O)O2)O1` in terms of TGI is > 100 µM

The reported value for `O=C1c2ccccc2CN1c1ccc(O)cc1` in terms of TGI is > 100 µM

The reported value for `O=C(O)[C@@H]1C[C@@H](O)CN1C(=O)OCc1ccccc1` in terms of TGI is > 100 µM

The reported value for NC(=O)C(=O)N/N=C1/c2ccccc2CC1C1(O)C(=O)Nc2c(Cl)cc(Cl)cc21 (stereo not given) in terms of TGI is > 100 µM

The reported value for `CCOC(=O)c1[nH]cc(C)c1-c1ccn(-c2ccccc2)c1` in terms of TGI is > 100 µM
